Numbers sourced from patent US6579881B2.

Parameter Ki, tested on serotonin 1A receptor (Rattus norvegicus), listed per item.
Sequence (P19327 whole entry): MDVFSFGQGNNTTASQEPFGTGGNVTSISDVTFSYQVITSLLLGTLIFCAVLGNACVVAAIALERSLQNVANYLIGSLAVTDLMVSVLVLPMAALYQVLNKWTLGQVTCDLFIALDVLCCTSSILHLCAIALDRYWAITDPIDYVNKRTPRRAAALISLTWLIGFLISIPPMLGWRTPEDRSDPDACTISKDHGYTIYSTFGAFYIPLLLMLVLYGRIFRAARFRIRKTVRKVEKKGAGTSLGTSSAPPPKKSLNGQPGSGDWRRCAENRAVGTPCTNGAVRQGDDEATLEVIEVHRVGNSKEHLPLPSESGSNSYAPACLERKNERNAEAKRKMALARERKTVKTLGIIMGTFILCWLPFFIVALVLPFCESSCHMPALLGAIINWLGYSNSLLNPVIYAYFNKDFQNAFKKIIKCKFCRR
Structures can show the parent of a compound that is named as a salt.
MEASURED_METRIC: Ki

[
  {
    "COMPOUND": "O/N=C/c1ccc(CCN2CCC(N3CCc4ccccc43)CC2)cc1",
    "REPORTED_MEASUREMENT": "1.9 nM"
  },
  {
    "COMPOUND": "OCCOc1ccc2c(c1)N(C1CCN(CCc3ccc(F)cc3)CC1)CC2",
    "REPORTED_MEASUREMENT": "0.5 nM"
  },
  {
    "COMPOUND": "Fc1ccc(CCN2CCC(n3ccc4ccccc43)CC2)c(F)n1",
    "REPORTED_MEASUREMENT": "2.24 nM"
  },
  {
    "COMPOUND": "OCCc1ccc(OCCCN2CCC(N3CCc4ccccc43)CC2)cc1",
    "REPORTED_MEASUREMENT": "25.4 nM"
  },
  {
    "COMPOUND": "O=C(Cc1ccc2ccn(C3CCN(CCc4ccc(F)cc4)CC3)c2c1)N(CCO)CCO [Example 303, Oxalate]",
    "REPORTED_MEASUREMENT": "3.6 nM"
  },
  {
    "COMPOUND": "COc1ccc(C(O)c2ccc3ccn(C4CCN(CCc5ccc(F)cc5)CC4)c3c2)cn1 (stereo not drawn) [Example 318, Oxalate]",
    "REPORTED_MEASUREMENT": "1.49 nM"
  },
  {
    "COMPOUND": "Fc1ccc(CCN2CCC(C3CCc4cccnc43)CC2)cc1 (stereo not drawn)",
    "REPORTED_MEASUREMENT": "2.8 nM"
  },
  {
    "COMPOUND": "Fc1ccc(CCN2CCC(N3CCc4ccc(CC5CCNCC5)cc43)CC2)cc1",
    "REPORTED_MEASUREMENT": "6.49 nM"
  },
  {
    "COMPOUND": "O=C1NCCN1Cc1ccc2ccn(C3CCN(CCc4ccc(F)cc4)CC3)c2c1",
    "REPORTED_MEASUREMENT": "0.35 nM"
  }
]
